Where these numbers come from: patent US20250340591A1

# testedOn: GPR39 (Homo sapiens)
# Sequence (O43194 1-453): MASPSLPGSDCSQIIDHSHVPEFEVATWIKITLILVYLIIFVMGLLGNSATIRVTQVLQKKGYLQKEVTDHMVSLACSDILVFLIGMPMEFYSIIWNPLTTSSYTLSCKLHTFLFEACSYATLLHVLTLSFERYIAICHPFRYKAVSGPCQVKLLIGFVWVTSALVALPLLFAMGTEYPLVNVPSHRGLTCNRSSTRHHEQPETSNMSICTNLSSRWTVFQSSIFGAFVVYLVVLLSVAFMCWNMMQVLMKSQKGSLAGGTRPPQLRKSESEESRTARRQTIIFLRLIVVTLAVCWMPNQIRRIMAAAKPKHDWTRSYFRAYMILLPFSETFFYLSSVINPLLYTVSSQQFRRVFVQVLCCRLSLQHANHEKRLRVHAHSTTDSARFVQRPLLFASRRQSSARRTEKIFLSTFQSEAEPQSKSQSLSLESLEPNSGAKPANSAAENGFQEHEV
# testName: luciferase assay system (SRE luciferase reporter gene, CV-1 cells expressing GPR39)
# Format: cell-based
# Design: expressed in transfected cells; host or cells: CV-1 fibroblast cell line (Korea Cell Line Bank), adenoviral transduction at 50 MOI
Square brackets hold non-standard residues; d marks the D form. Peptide text beside a SMILES is read from it. * marks the point of attachment. His(Trt) = N[C@@H](Cc1cn(C(c2ccccc2)(c2ccccc2)c2ccccc2)cn1)C(=O)O; dPhe(4-CF3) = N[C@H](Cc1ccc(C(F)(F)F)cc1)C(=O)O; dPhe(4-Br) = N[C@H](Cc1ccc(Br)cc1)C(=O)O; d3Pal = N[C@H](Cc1cccnc1)C(=O)O; Octanoyl = CCCCCCCC(=O)*
Kindly supply the reported ECmax (−fold induction over basal) values for the records listed here.
Expressed in fold induction over basal, but write only the number.

## Task What does the record list as ECmax (−fold induction over basal) for CCCCCCCC(=O)NCCCC[C@H](NC(=O)[C@@H](N)Cc1c[nH]c(-c2cccs2)n1)C(=O)N[C@H](Cc1ccc(C)cc1)C(=O)N[C@@H](Cc1ccc(O)cc1)C(=O)O ?
## Result 13.5

## Task What does the record list as ECmax (−fold induction over basal) for CCCCCCCC(=O)NCCCC[C@H](NC(=O)[C@@H](N)Cc1cn(C(c2ccccc2)(c2ccccc2)c2ccccc2)cn1)C(=O)N[C@H](Cc1ccc(C(F)(F)F)cc1)C(=O)N[C@@H](Cc1ccc(O)cc1)C(=O)O [HKFY-76] (H-[His(Trt)]K(Octanoyl)[dPhe(4-CF3)]Y-OH) ?
## Result 14.2

## Task What does the record list as ECmax (−fold induction over basal) for CCCCCCCC(=O)NCCCC[C@H](NC(=O)[C@@H](N)Cc1cn(C(c2ccccc2)(c2ccccc2)c2ccccc2)cn1)C(=O)N[C@H](Cc1cccnc1)C(=O)N[C@@H](Cc1ccc(O)cc1)C(=O)O [HKFY-73] (H-[His(Trt)]K(Octanoyl)[d3Pal]Y-OH) ?
## Result 11.6

## Task What does the record list as ECmax (−fold induction over basal) for CCCCCCCC(=O)NCCCC[C@H](NC(=O)[C@@H](N)Cc1cn(C(c2ccccc2)(c2ccccc2)c2ccccc2)cn1)C(=O)N[C@@H](Cc1ccc(O)cc1)C(=O)N[C@@H](Cc1ccccc1)C(=O)O [HKFY-47] (H-[His(Trt)]K(Octanoyl)YF-OH) ?
## Result 13

## Task What does the record list as ECmax (−fold induction over basal) for CCCCCCCC(=O)NCCCC[C@H](NC(=O)[C@@H](N)Cc1cn(C(c2ccccc2)(c2ccccc2)c2ccccc2)cn1)C(=O)N[C@H](Cc1ccc(Br)cc1)C(=O)N[C@@H](Cc1ccc(O)cc1)C(=O)O [HKFY-29] (H-[His(Trt)]K(Octanoyl)[dPhe(4-Br)]Y-OH) ?
## Result 26.8

## Task What does the record list as ECmax (−fold induction over basal) for CCCCCCCC(=O)NCCCC[C@H](NC(=O)[C@@H](N)Cc1cn(-c2ccccc2)c(-c2ccccc2)n1)C(=O)N[C@H](Cc1ccc(C)cc1)C(=O)N[C@@H](Cc1ccc(O)cc1)C(=O)O ?
## Result 6.76

## Task What does the record list as ECmax (−fold induction over basal) for CCCCCCCC(=O)NCCCC[C@H](NC(=O)[C@@H](N)Cc1cn(C(c2ccccc2)c2ccc(OC)cc2)cn1)C(=O)N[C@H](Cc1ccc(C)cc1)C(=O)N[C@@H](Cc1ccc(O)cc1)C(=O)O (some centres unmarked) ?
## Result 16

## Task What does the record list as ECmax (−fold induction over basal) for CCCCCCCC(=O)NCCCC[C@H](NC(=O)[C@H](Cc1cn(C(c2ccccc2)(c2ccccc2)c2ccccc2)cn1)NC(=O)[C@H](CO)NC(=O)CN)C(=O)N[C@@H](Cc1ccccc1)C(=O)N[C@@H](Cc1ccc(O)cc1)C(=O)O [HKFY-37] (H-GS[His(Trt)]K(Octanoyl)FY-OH) ?
## Result 16
